Where do the numbers come from? From patent US20230287044A1.

Entries and their measured MIC VRE (E. faecalis) ATCC 51575 follow.
Tested on: VRE (E. faecalis) ATCC 51575
Format: cell-based, Enterococcus faecalis
Details: ATCC 51575, 18 h
Square brackets hold non-standard residues; d marks the D form. Peptide text beside a SMILES is read from it.

Field: example entries. Status: answers known.
| compound | attribute-measured | result |
| --- | --- | --- |
| CC[C@@H](C)[C@@H](NC(=O)[C@@H](Cc1c[nH]c2ccccc12)NC(=O)[C@@H](C)NC(=O)[C@@H](C)NC(=O)[C@H](N)Cc1c[nH]c2ccccc12)C(=O)NCC(=O)N[C@H](CC(C)C)C(=O)N[C@H](CCCNC(=N)N)C(=O)N[C@H](CCCCN)C(=O)N[C@H](CCCCN)C(=O)N[C@H](CCCCN)C(N)=O [KSH75, waawiglrkkk] (H-[dW][dA][dA][dW][dI]G[dL][dR][dK][dK][dK]-NH2; N-terminus assumed) | MIC VRE (E. faecalis) ATCC 51575 | >10 µM |
| CC[C@@H](C)[C@@H](NC(=O)[C@@H](Cc1c[nH]c2ccccc12)NC(=O)[C@@H](CCCNC(=N)N)NC(=O)[C@@H](CCCNC(=N)N)NC(=O)[C@H](N)CCCNC(=N)N)C(=O)N[C@H](Cc1c[nH]c2ccccc12)C(=O)N[C@H](C)C(=O)N[C@H](C)C(=O)N[C@H](Cc1c[nH]c2ccccc12)C(=O)N[C@H](CCCCN)C(N)=O [KSH74, rrrwiwaawk] (H-[dR][dR][dR][dW][dI][dW][dA][dA][dW][dK]-NH2; N-terminus assumed) | MIC VRE (E. faecalis) ATCC 51575 | >10 µM |
| CC(C)[C@@H](NC(=O)[C@H](N)Cc1c[nH]c2ccccc12)C(=O)N[C@@H](C(=O)N[C@H](Cc1c[nH]c2ccccc12)C(=O)N[C@@H](C(=O)N[C@@H](C(=O)N[C@H](Cc1c[nH]c2ccccc12)C(=O)N[C@H](CCCCN)C(=O)N[C@H](CCCCN)C(=O)N[C@H](CCCCN)C(N)=O)C(C)C)C(C)C)C(C)C [KSH67, wvvwvvwkkk] (H-[dW][dV][dV][dW][dV][dV][dW][dK][dK][dK]-NH2; N-terminus assumed) | MIC VRE (E. faecalis) ATCC 51575 | 0.63 µM |
| CC[C@@H](C)[C@@H](NC(=O)[C@@H](Cc1c[nH]c2ccccc12)NC(=O)[C@@H](CCCCN)NC(=O)[C@@H](CCCNC(=N)N)NC(=O)[C@H](N)CCCNC(=N)N)C(=O)N[C@H](Cc1c[nH]c2ccccc12)C(=O)N[C@H](Cc1c[nH]c2ccccc12)C(=O)N[C@H](CC(C)C)C(=O)N[C@H](Cc1c[nH]c2ccccc12)C(=O)N[C@H](CCCCN)C(N)=O [KSH51, rrkwiwwlwk] (H-[dR][dR][dK][dW][dI][dW][dW][dL][dW][dK]-NH2; N-terminus assumed) | MIC VRE (E. faecalis) ATCC 51575 | 1.25 µM |
| CC[C@@H](C)[C@@H](NC(=O)[C@@H](Cc1c[nH]c2ccccc12)NC(=O)[C@H](NC(=O)[C@@H](CC(C)C)NC(=O)[C@@H](Cc1c[nH]c2ccccc12)NC(=O)[C@H](N)CC(=O)O)C(C)C)C(=O)N[C@H](Cc1c[nH]c2ccccc12)C(=O)N[C@H](CCCNC(=N)N)C(=O)N[C@H](CCCNC(=N)N)C(=O)N[C@H](CCCNC(=N)N)C(N)=O [KSH36, dwlvwiwrrr] (H-[dD][dW][dL][dV][dW][dI][dW][dR][dR][dR]-NH2; N-terminus assumed) | MIC VRE (E. faecalis) ATCC 51575 | 2.5 µM |

Please examine the following record next.
Please state recorded MIC VRE (E. faecalis) ATCC 51575 (tested on VRE (E. faecalis) ATCC 51575) of CC[C@@H](C)[C@@H](NC(=O)[C@@H](Cc1c[nH]c2ccccc12)NC(=O)[C@@H](C)NC(=O)[C@@H](C)NC(=O)[C@H](N)Cc1c[nH]c2ccccc12)C(=O)NCC(=O)N[C@H](CC(C)C)C(=O)N[C@H](CCCNC(=N)N)C(=O)N[C@H](CCCNC(=N)N)C(=O)N[C@H](CCCCN)C(=O)N[C@H](CCCCN)C(N)=O [KSH76, waawiglrrkk] (H-[dW][dA][dA][dW][dI]G[dL][dR][dR][dK][dK]-NH2; N-terminus assumed)
>10 µM
